Test system: Plasmodium falciparum
Experiment: GSK_TCMDC: Inhibition of Plasmodium falciparum Dd2 in whole red blood cells, using parasite LDH activity as an index of growth. Test compounds present at 2uM
Format: functional
Returns yes if the recorded Inhibition is greater than or equal to 70%, and no otherwise.

Exercise: Is it the case that `Cc1nnsc1C(=O)Nc1cccc(-c2ccc(-c3nc4cc(C(F)(F)F)ccc4[nH]3)cc2)c1` has Inhibition reaching or exceeding 70%?
Key: yes

Exercise: Is it the case that `CCCNCc1ccc(-c2ccc(CN(CCOC)C(=O)[C@H]3CCCO3)cc2)nc1.O=C(O)C(F)(F)F` has Inhibition reaching or exceeding 70%?
Key: no

Exercise: Is it the case that `Nc1nc(N)c2c(ccc3c2ccn3CCCC(F)(F)F)n1` has Inhibition reaching or exceeding 70%?
Key: no

Exercise: Is it the case that `CC(C)C[C@H](NC(=O)[C@H](Cc1ccccc1)N(C[C@H](Cc1ccccc1)NC(=O)OC(C)(C)C)C(=O)C(F)(F)F)C(=O)NC1CCN(Cc2ccccc2)CC1` has Inhibition reaching or exceeding 70%?
Key: yes

Exercise: Is it the case that `CC(C)C[C@H](NC(=O)c1ccc(OCCN2CCOCC2)cc1)C(=O)N[C@H](/C=N/N1CCN(C)C1=O)CCc1ccccc1` has Inhibition reaching or exceeding 70%?
Key: no

Exercise: Is it the case that `Cn1cncc1C(=O)Nc1cccc(-c2ccc(-c3nc4cc(F)ccc4[nH]3)cc2)c1` has Inhibition reaching or exceeding 70%?
Key: no

Exercise: Is it the case that `Cc1cc2nc(-c3cc(Br)ccc3O)c(-c3cc(Br)ccc3O)nc2cc1C` has Inhibition reaching or exceeding 70%?
Key: no

Exercise: Is it the case that COc1ccc2nccc(CCN3CC(O)C(CNCc4ccc5c(n4)NC(=O)CS5)C3)c2n1.Cl (stereo not drawn) has Inhibition reaching or exceeding 70%?
Key: no

Exercise: Is it the case that `CCc1c(CCNC/C=C/C=C/CNCCc2ccc(OC)c(OC)c2CC)ccc(OC)c1OC.Cl` has Inhibition reaching or exceeding 70%?
Key: yes

Exercise: Is it the case that `CC(C)CNCc1cccc(-c2ccccc2CNC2CCN(Cc3ccccc3)CC2)c1.O=C(O)C(F)(F)F` has Inhibition reaching or exceeding 70%?
Key: no

Exercise: Is it the case that `O=C(N1CCN(c2ccnc3cc4c(cc23)N(Cc2ccccc2)CC4)CC1)C(F)(F)F` has Inhibition reaching or exceeding 70%?
Key: yes

Exercise: Is it the case that CCCCCN1C(=O)N(c2ccc(Cl)c(Cl)c2)C(N(O)C(=O)Nc2ccc(Cl)c(Cl)c2)C1(C)C (stereo not drawn) has Inhibition reaching or exceeding 70%?
Key: yes

Exercise: Is it the case that `COc1ccc(CN2CCC(C(=O)Nc3cccc(-c4cccc(Cl)c4)c3)CC2)cc1O` has Inhibition reaching or exceeding 70%?
Key: no

Exercise: Is it the case that `CN1CCN(c2ccc(-c3nc4ccc(OCc5cc(Cl)cc(Cl)c5)c(C(N)=O)c4[nH]3)cc2)CC1` has Inhibition reaching or exceeding 70%?
Key: yes

Exercise: Is it the case that CCn1cc(CN2CCCC(C(=O)Nc3ccc(-c4nc5ccccc5[nH]4)cc3)C2)c(C)n1 (stereo not drawn) has Inhibition reaching or exceeding 70%?
Key: no

Exercise: Is it the case that `COc1ccc(Nc2nc(NCc3ccc(-n4ccnc4)cc3)cc(-c3ccc(OC)cc3)n2)cc1` has Inhibition reaching or exceeding 70%?
Key: no
